Reported pIC50 values for a set of compounds
# System Name: RORγ receptor (Homo sapiens, UniProt P51449)
# Sequence (P51449 269-508): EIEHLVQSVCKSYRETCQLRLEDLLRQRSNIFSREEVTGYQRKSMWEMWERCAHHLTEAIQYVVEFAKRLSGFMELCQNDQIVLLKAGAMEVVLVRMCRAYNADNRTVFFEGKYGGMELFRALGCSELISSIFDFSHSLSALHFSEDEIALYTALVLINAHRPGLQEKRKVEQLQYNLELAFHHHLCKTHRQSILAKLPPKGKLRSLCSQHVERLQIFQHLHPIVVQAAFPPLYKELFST
# Experimental Protocol: RORγ Gal4 reporter assay (Gal4-luciferase, inverse agonist activity)
# Assay type: cell-based
# Setup Conditions: Jurkat cells stably over-expressing hRORγ; Gal4-luciferase reporter; overnight incubation; read-out: RORγ Gal4, IC50
# Description: General RORγ Gal4 Reporter Assay IC50 values were determined.
Just so you know, pIC50 here is -log10 of the concentration in molar units; reply with that number alone.

The following compounds have reported results that may help.
{"Compound": "O=C(N[C@@H]1CC[C@@]2(S(=O)(=O)c3ccc(F)cc3)c3ccc(C(F)(C(F)(F)F)C(F)(F)F)cc3CC[C@@H]12)[C@@H](O)Cc1c[nH]cn1", "pIC50": 7.85}
{"Compound": "O=C(O)C1CCCC(NC(=O)[C@@H]2CC[C@@]3(S(=O)(=O)c4ccc(F)cc4)c4ccc(C(F)(C(F)(F)F)C(F)(F)F)cc4CC[C@@H]23)C1 (some centres unmarked) [Example 100]", "pIC50": 7.28}
{"Compound": "O=C(N[C@@H]1CC[C@@]2(S(=O)(=O)c3ccc(F)cc3)c3ccc(C(F)(C(F)(F)F)C(F)(F)F)cc3CC[C@@H]12)C1CCS(=O)(=O)CC1", "pIC50": 8.05}
{"Compound": "O=C(N[C@@H]1CC[C@@]2(S(=O)(=O)c3ccc(F)cc3)c3ccc(C(F)(C(F)(F)F)C(F)(F)F)cc3CC[C@@H]12)C1(F)CCS(=O)(=O)CC1", "pIC50": 8.15}
{"Compound": "O=C(O)[C@H]1CC[C@](O)(C(=O)N[C@@H]2CC[C@@]3(S(=O)(=O)c4ccc(F)cc4)c4ccc(C(F)(C(F)(F)F)C(F)(F)F)cc4CC[C@@H]23)CC1", "pIC50": 7.27}

Q. Respond only with pIC50 recorded for "O=C1CC2(CCN(C(=O)[C@@H]3CC[C@@]4(S(=O)(=O)c5ccc(F)cc5)c5ccc(C(F)(C(F)(F)F)C(F)(F)F)cc5CC[C@@H]34)CC2)CN1"
A. 8.05

Q. Respond only with pIC50 recorded for "Cc1ncn(C)c1C(=O)N[C@@H]1CC[C@@]2(S(=O)(=O)c3ccc(F)cc3)c3ccc(C(F)(C(F)(F)F)C(F)(F)F)cc3CC[C@@H]12"
A. 7.89

Q. Respond only with pIC50 recorded for "CN(C)[C@@H]1CC[C@@]2(S(=O)(=O)c3ccc(F)cc3)c3ccc(C(F)(C(F)(F)F)C(F)(F)F)cc3CC[C@@H]12"
A. 6.80

Q. Respond only with pIC50 recorded for "O=C([C@@H]1CC[C@@]2(S(=O)(=O)c3ccc(F)cc3)c3ccc(C(F)(C(F)(F)F)C(F)(F)F)cc3CC[C@@H]12)N1CCC(F)(F)C1"
A. 7.89

Q. Respond only with pIC50 recorded for "CC(C)(N)C(=O)N[C@@H]1CC[C@@]2(S(=O)(=O)c3ccc(F)cc3)c3ccc(C(F)(C(F)(F)F)C(F)(F)F)cc3CC[C@@H]12"
A. 7.52

Q. Respond only with pIC50 recorded for "O=C(N[C@@H]1CC[C@@]2(S(=O)(=O)c3ccc(F)cc3)c3ccc(C(F)(C(F)(F)F)C(F)(F)F)cc3CC[C@@H]12)c1ccc(=O)[nH]c1"
A. 8.05
